Target: T1, human δ opioid receptor (human, UniProt P41143 1-372)
T1 construct: whole, on cells; membrane preparations of the transfected cells were used; also called hDOR; DOR
T1 sequence (P41143 whole entry, stated change not applied): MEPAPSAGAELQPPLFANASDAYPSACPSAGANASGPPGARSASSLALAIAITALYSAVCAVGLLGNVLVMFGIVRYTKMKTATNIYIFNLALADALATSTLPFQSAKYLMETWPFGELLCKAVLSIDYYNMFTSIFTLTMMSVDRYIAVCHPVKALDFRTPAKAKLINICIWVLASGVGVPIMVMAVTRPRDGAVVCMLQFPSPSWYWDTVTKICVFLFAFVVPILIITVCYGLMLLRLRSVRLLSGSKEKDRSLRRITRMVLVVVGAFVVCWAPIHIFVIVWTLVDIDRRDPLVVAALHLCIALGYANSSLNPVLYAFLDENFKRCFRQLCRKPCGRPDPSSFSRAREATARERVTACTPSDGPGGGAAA
Experiment: competition vs [3H]DPDPE, hDOR cell membranes
Square brackets hold non-standard residues; d marks the D form. Ends that are not written are not given here. * marks the point of attachment. OBzl(3,5-(CF3)2) = FC(F)(F)c1cc(CO*)cc(C(F)(F)F)c1
Hi! Just check whether Ki is below 10 nM. Below gives met, equal or above gives not met.

These solved cases illustrate the format of a correct answer.
1) Y[dA]GFLPLW-{OBzl(3,5-(CF3)2)} (also called TY004) [TyrDAlaGlyPheLeuProLeuTrpOBn(CF3)2] : met
2) Y[dA]GFMPLW-{OBzl(3,5-(CF3)2)} (also called TY005) [TyrDAlaGlyPheMetProLeuTrpOBn(CF3)2] : met
3) Y[dA]GFGPLW-{OBzl(3,5-(CF3)2)} (also: TFA salt, also called TY006) [TyrDAlaGlyPheGlyProLeuTrpOBn(CF3)2] : not met
4) YAGFMPLW (D-Ala at 2; Met(O) at 5; C-terminal O-3,5-Bzl(CF3)2 ester, also called TY023) [TyrDAlaGlyPheMet(O)ProLeuTrpOBn(CF3)2] : met
5) YAGFXPLW (D-Ala at 2; Nle at 5 (written X); C-terminal O-3,5-Bzl(CF3)2 ester, also called TY018) [TyrDAlaGlyPheNleProLeuTrpOBn(CF3)2] : met

Req: Is Ki of Y[dA]GF[dF]PLW-{OBzl(3,5-(CF3)2)} (also called TY007) [TyrDAlaGlyPheDPheProLeuTrpOBn(CF3)2] strictly below 10 nM?
Resp: not met

Req: Try Y[dA]GFFPLW-{OBzl(3,5-(CF3)2)} (also called TY003) [TyrDAlaGlyPhePheProLeuTrpOBn(CF3)2] next.
Resp: not met
